biological target: GST-MCL-1 (Homo sapiens, UniProt Q07820); assay: TR-FRET MCL-1 binding assay (competition with probe F-Bak); settings: MCL-1 Binding Ki (nM, 10% HS), in the presence of 10% HS (human serum)
Sequence (Q07820 whole entry): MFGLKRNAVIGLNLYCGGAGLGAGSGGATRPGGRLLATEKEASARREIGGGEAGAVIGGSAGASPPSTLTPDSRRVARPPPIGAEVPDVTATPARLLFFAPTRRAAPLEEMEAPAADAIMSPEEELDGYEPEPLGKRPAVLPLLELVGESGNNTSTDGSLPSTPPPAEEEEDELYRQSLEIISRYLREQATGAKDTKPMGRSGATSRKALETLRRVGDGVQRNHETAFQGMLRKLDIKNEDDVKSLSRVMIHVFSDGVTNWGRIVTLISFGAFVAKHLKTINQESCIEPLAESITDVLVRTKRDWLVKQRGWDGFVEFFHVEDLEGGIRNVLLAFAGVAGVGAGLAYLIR
readout-kind: Ki (nM)
Please give a number only; it is taken to be in nM.

Previously resolved entries follow.
[[record]]
compound = "Cc1c(Cl)c2c(Cl)c(C)c1-c1c(-c3ccc(F)cc3)sc3ncnc(c13)O[C@@H](C(=O)O)Cc1cc(ccc1OCc1ccnc(-c3ccc(S(=O)(=O)N4CCOCC4)cc3)n1)OC[C@@H](CN1CCN(C)CC1)O2 [Example 145]"
unit_abbreviation = "nM"
value_reported = 0.399

[[record]]
compound = "Cc1c(Cl)c2c(Cl)c(C)c1-c1c(-c3ccc(F)cc3)sc3ncnc(c13)O[C@@H](C(=O)O)Cc1cc(ccc1OCc1ccnc(N3CCC4(CCCNC4=O)CC3)n1)OC[C@@H](CN1CCN(C)CC1)O2 [Example 61]"
unit_abbreviation = "nM"
value_reported = 4.2

[[record]]
compound = "Cc1c(Cl)c2c(Cl)c(C)c1-c1c(-c3ccc(F)cc3)sc3ncnc(c13)O[C@@H](C(=O)O)Cc1cc(ccc1OCc1ccnc(-c3ccc(O[C@H]4CO[C@H]5[C@@H]4OC[C@H]5O)cc3)n1)OC[C@@H](CN1CCN(C)CC1)O2 [Example 161]"
unit_abbreviation = "nM"
value_reported = 0.141


Switching to the query record.
Req: Item: COCCOCCOCCOCCOCCOCCOCCC(=O)N1CCC[C@@H]1c1nccc(COc2ccc3cc2C[C@H](C(=O)O)Oc2ncnc4sc(-c5ccc(F)cc5)c(c24)-c2ccc(c(Cl)c2C)O[C@H](CN2CCN(C)CC2)CO3)n1 [Example 43] Test system: GST-MCL-1 (Homo sapiens, UniProt Q07820) Read-out: Ki Value: ?
Resp: 39.4
